Examples of molecules with documented CC50 at 96 h follow.
Assay: Cytotoxicity against human RD cells incubated for 4 days by CellTiter-Glo luminescence assay
Assay type: cell-based

Sample Smiles: CN1CCN(c2ccc(-c3ccc4ncc5ccc(=O)n(-c6cccc(C(F)(F)F)c6)c5c4c3)cn2)CC1
Censoring Operator: =
CC50 at 96 h / µM: 0.18

Sample Smiles: CC(=O)/C=C/c1cnc2ccc(-c3cccc(N)c3)cc2c1Nc1cccc(C(F)(F)F)c1
Censoring Operator: >
CC50 at 96 h / µM: 200

Sample Smiles: CCCCC(=O)Nc1ccc(-c2ccc3ncc4ccc(=O)n(-c5cccc(C(F)(F)F)c5)c4c3c2)cn1
Censoring Operator: =
CC50 at 96 h / µM: 0.7

Sample Smiles: CC(=O)/C=C/c1cnc2ccc(-c3ccc(N)cc3)cc2c1Nc1cccc(C(F)(F)F)c1
Censoring Operator: =
CC50 at 96 h / µM: 5.14

Sample Smiles: O=c1ccc2cnc3ccc(-c4ccc(N5CCCC5)nc4)cc3c2n1-c1cccc(C(F)(F)F)c1
Censoring Operator: =
CC50 at 96 h / µM: 1.79

###

Molecular target: mTORC2 (Homo sapiens) (UniProt P42345+Q6R327+Q9BVC4+Q9BPZ7)
Experiment: Inhibition of mTORC2 in human RD cells assessed as reduction in Akt phosphorylation at Ser473 site at 20 uM incubated for 2 hrs in presence of insulin by Western blot analysis
Type: cell-based
Active and inactive are the calls of the source. No cut-off for these calls is given here.
Outcomes: active, inactive

Sample Smiles: O=C(Nc1ccc(-c2ccc3ncc4ccc(=O)n(-c5cccc(C(F)(F)F)c5)c4c3c2)cn1)OCc1ccccc1
Test Target: mTORC2 (Homo sapiens) (UniProt P42345+Q6R327+Q9BVC4+Q9BPZ7)
Qualitative Label: active

Sample Smiles: COc1ccc(-c2ccc3ncc4ccc(=O)n(-c5cccc(C(F)(F)F)c5)c4c3c2)cn1
Test Target: mTORC2 (Homo sapiens) (UniProt P42345+Q6R327+Q9BVC4+Q9BPZ7)
Qualitative Label: active

Sample Smiles: O=c1ccc2cnc3ccc(-c4ccc(N5CCOCC5)nc4)cc3c2n1-c1cccc(C(F)(F)F)c1
Test Target: mTORC2 (Homo sapiens) (UniProt P42345+Q6R327+Q9BVC4+Q9BPZ7)
Qualitative Label: active

Sample Smiles: Nc1cccc(Nc2ccc3ncc4ccc(=O)n(-c5cccc(C(F)(F)F)c5)c4c3c2)c1
Test Target: mTORC2 (Homo sapiens) (UniProt P42345+Q6R327+Q9BVC4+Q9BPZ7)
Qualitative Label: active

Sample Smiles: O=C(Cc1ccccc1)Nc1ccc(-c2ccc3ncc4ccc(=O)n(-c5cccc(C(F)(F)F)c5)c4c3c2)cn1
Test Target: mTORC2 (Homo sapiens) (UniProt P42345+Q6R327+Q9BVC4+Q9BPZ7)
Qualitative Label: active

Sample Smiles: O=c1ccc2cnc3ccc(-c4cccnc4F)cc3c2n1-c1cccc(C(F)(F)F)c1
Test Target: mTORC2 (Homo sapiens) (UniProt P42345+Q6R327+Q9BVC4+Q9BPZ7)
Qualitative Label: active

Sample Smiles: O=C(Nc1ccc(-c2ccc3ncc4ccc(=O)n(-c5cccc(C(F)(F)F)c5)c4c3c2)cn1)Oc1ccccc1
Test Target: mTORC2 (Homo sapiens) (UniProt P42345+Q6R327+Q9BVC4+Q9BPZ7)
Qualitative Label: active

Sample Smiles: CC(C)(C)OC(=O)Nc1ccc(-c2ccc3ncc4ccc(=O)n(-c5cccc(C(F)(F)F)c5)c4c3c2)cn1
Test Target: mTORC2 (Homo sapiens) (UniProt P42345+Q6R327+Q9BVC4+Q9BPZ7)
Qualitative Label: active

Sample Smiles: O=c1ccc2cnc3ccc(-c4ccc(N5CCCC5)nc4)cc3c2n1-c1cccc(C(F)(F)F)c1
Test Target: mTORC2 (Homo sapiens) (UniProt P42345+Q6R327+Q9BVC4+Q9BPZ7)
Qualitative Label: active

Sample Smiles: CC(C)C(=O)Nc1ccc(-c2ccc3ncc4ccc(=O)n(-c5cccc(C(F)(F)F)c5)c4c3c2)cn1
Test Target: mTORC2 (Homo sapiens) (UniProt P42345+Q6R327+Q9BVC4+Q9BPZ7)
Qualitative Label: active

Sample Smiles: CCC(=O)Nc1ccc(-c2ccc3ncc4ccc(=O)n(-c5cccc(C(F)(F)F)c5)c4c3c2)cn1
Test Target: mTORC2 (Homo sapiens) (UniProt P42345+Q6R327+Q9BVC4+Q9BPZ7)
Qualitative Label: active

Sample Smiles: NC(=O)NC/C=C/c1ccc2ncc3oc(=O)n(-c4cccc(C(F)(F)F)c4)c3c2c1
Test Target: mTORC2 (Homo sapiens) (UniProt P42345+Q6R327+Q9BVC4+Q9BPZ7)
Qualitative Label: inactive

Sample Smiles: Nc1cccc(Nc2ccc3ncc4ccc(=O)n(-c5cccc(C(F)(F)F)c5)c4c3c2)n1
Test Target: mTORC2 (Homo sapiens) (UniProt P42345+Q6R327+Q9BVC4+Q9BPZ7)
Qualitative Label: active

Sample Smiles: CN(C)c1ccc(-c2ccc3ncc4ccc(=O)n(-c5cccc(C(F)(F)F)c5)c4c3c2)cn1
Test Target: mTORC2 (Homo sapiens) (UniProt P42345+Q6R327+Q9BVC4+Q9BPZ7)
Qualitative Label: active

Sample Smiles: CCCC(=O)Nc1ccc(-c2ccc3ncc4ccc(=O)n(-c5cccc(C(F)(F)F)c5)c4c3c2)cn1
Test Target: mTORC2 (Homo sapiens) (UniProt P42345+Q6R327+Q9BVC4+Q9BPZ7)
Qualitative Label: active

Sample Smiles: O=c1ccc2cnc3ccc(-c4ccc(F)nc4)cc3c2n1-c1cccc(C(F)(F)F)c1
Test Target: mTORC2 (Homo sapiens) (UniProt P42345+Q6R327+Q9BVC4+Q9BPZ7)
Qualitative Label: active

Sample Smiles: CCCCC(=O)Nc1ccc(-c2ccc3ncc4ccc(=O)n(-c5cccc(C(F)(F)F)c5)c4c3c2)cn1
Test Target: mTORC2 (Homo sapiens) (UniProt P42345+Q6R327+Q9BVC4+Q9BPZ7)
Qualitative Label: active

Sample Smiles: Cc1ccc(-c2ccc3ncc4oc(=O)n(-c5cccc(C(F)(F)F)c5)c4c3c2)cn1
Test Target: mTORC2 (Homo sapiens) (UniProt P42345+Q6R327+Q9BVC4+Q9BPZ7)
Qualitative Label: inactive

Sample Smiles: CC(=O)/C=C/c1cnc2ccc(-c3ccc(N)cc3)cc2c1Nc1cccc(C(F)(F)F)c1
Test Target: mTORC2 (Homo sapiens) (UniProt P42345+Q6R327+Q9BVC4+Q9BPZ7)
Qualitative Label: inactive
